Below is a list of entries, each paired with its recorded log10 IC50 value.
Target: Somatostatin receptor type 5 (Homo sapiens)
Sequence (P35346 whole entry): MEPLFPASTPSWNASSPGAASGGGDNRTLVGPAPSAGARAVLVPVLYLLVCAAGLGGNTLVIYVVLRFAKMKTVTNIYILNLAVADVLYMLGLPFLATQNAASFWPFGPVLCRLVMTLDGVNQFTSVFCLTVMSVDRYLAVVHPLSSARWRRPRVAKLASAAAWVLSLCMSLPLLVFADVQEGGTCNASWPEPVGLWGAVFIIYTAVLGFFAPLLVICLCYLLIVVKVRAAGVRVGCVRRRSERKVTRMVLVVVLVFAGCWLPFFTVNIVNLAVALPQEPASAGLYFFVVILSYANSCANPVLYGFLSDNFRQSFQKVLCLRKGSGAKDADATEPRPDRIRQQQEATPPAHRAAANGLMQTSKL
Test: Displacement of [125I]-[Leu8, DTrp22, Tyr25]SRIF-28 from human cloned sst5 receptor expressed in CHOK1 cells
Hey, these are logged values: log10 of IC50, nM being the unit before logging.

Find the measured log10 IC50 of C[C@@H](O)[C@@H]1NC(=O)[C@H](CCCCN)NC(=O)[C@@H](Cc2c[nH]c3ccccc23)NC(=O)[C@H](Cc2ccccc2)NC(=O)[C@H](Cc2ccccc2)NC(=O)[C@H](N)CSSC[C@H](C(=O)O)NC(=O)[C@H](Cc2ccccc2)NC1=O and report it.
0.94

More entries:
Find the measured log10 IC50 of CC(=O)N[C@@H]1SSC[C@H](C(=O)O)NC(=O)[C@H](Cc2ccccc2)NC(=O)[C@H]([C@@H](C)O)NC(=O)[C@H](CCCCN)NC(=O)[C@@H](Cc2c[nH]c3ccccc23)NC(=O)[C@H](Cc2ccccc2)NC(=O)[C@H](Cc2ccccc2)NC1=O and report it.
1.70

Find the measured log10 IC50 of CC(=O)N[C@@H]1CSSC[C@H](C(=O)O)NC(=O)[C@H](Cc2ccccc2)NC(=O)[C@H]([C@@H](C)O)NC(=O)[C@H](CCCCN)NC(=O)[C@@H](Cc2c[nH]c3ccccc23)NC(=O)[C@H](Cc2ccccc2)NC(=O)[C@H](Cc2ccccc2)NC1=O and report it.
0.87

Find the measured log10 IC50 of CC(=O)N[C@H]1SS[C@@H](C(=O)O)NC(=O)[C@H](Cc2ccccc2)NC(=O)[C@H]([C@@H](C)O)NC(=O)[C@H](CCCCN)NC(=O)[C@@H](Cc2c[nH]c3ccccc23)NC(=O)[C@H](Cc2ccccc2)NC(=O)[C@H](Cc2ccccc2)NC1=O and report it.
1.32

Find the measured log10 IC50 of CC(=O)N[C@H]1SS[C@H](C(=O)O)NC(=O)[C@H](Cc2ccccc2)NC(=O)[C@H]([C@@H](C)O)NC(=O)[C@H](CCCCN)NC(=O)[C@@H](Cc2c[nH]c3ccccc23)NC(=O)[C@H](Cc2ccccc2)NC(=O)[C@H](Cc2ccccc2)NC1=O and report it.
2.03

Find the measured log10 IC50 of CC(=O)N[C@@H]1CSSC[C@@H](C(=O)O)NC(=O)[C@H](Cc2ccccc2)NC(=O)[C@H]([C@@H](C)O)NC(=O)[C@H](CCCCN)NC(=O)[C@@H](Cc2c[nH]c3ccccc23)NC(=O)[C@H](Cc2ccccc2)NC(=O)[C@H](Cc2ccccc2)NC1=O and report it.
0.96

Find the measured log10 IC50 of CC(=O)N[C@H]1SSC[C@@H](C(=O)O)NC(=O)[C@H](Cc2ccccc2)NC(=O)[C@H]([C@@H](C)O)NC(=O)[C@H](CCCCN)NC(=O)[C@@H](Cc2c[nH]c3ccccc23)NC(=O)[C@H](Cc2ccccc2)NC(=O)[C@H](Cc2ccccc2)NC1=O and report it.
1.66

Find the measured log10 IC50 of C[C@@H](O)[C@@H]1NC(=O)[C@H](CCCCN)NC(=O)[C@@H](Cc2c[nH]c3ccccc23)NC(=O)[C@H](Cc2ccccc2)NC(=O)[C@H](Cc2ccccc2)NC(=O)[C@@H](N)CSSC[C@H](C(=O)O)NC(=O)[C@H](Cc2ccccc2)NC1=O and report it.
1.43
